target: FKBP-12 (Homo sapiens, UniProt P62942); construct: purchased Sigma; host or cells: E. coli; assay: FKBP-12 binding assay ([3H]FK-506 competition)
pKd: −log10 of the molar value.
Measured parameter: pKd

CC[C@@H]1/C=C(\C)C[C@H](C)C[C@H](OC)[C@H]2O[C@@](O)(C(=O)C(=O)N3CCCC[C@H]3C(=O)O[C@H](/C(C)=C/[C@@H]3CC[C@@H](O)[C@H](OC)C3)[C@H](C)[C@@H](O)CC1=O)[C@H](C)C[C@@H]2OC [FK-520, ascomycin, reference compound]: 9.40

[1] CC[C@@H]1/C=C(\C)C[C@H](C)C[C@H](OC)[C@H]2O[C@@](O)(C(=O)C(=O)N3CCCC[C@H]3C(=O)O[C@H](/C(C)=C/[C@@H]3CC[C@@H](O)[C@H](OC)C3)[C@H](C)[C@@H](O)CC1=O)[C@H](C)C[C@@H]2C [13-desmethoxy-13-methyl-FK-520]
[2] CC[C@@H]1/C=C(\C)C[C@H](C)C[C@H](OC)[C@@H]2CC[C@@H](C)[C@@](O)(O2)C(=O)C(=O)N2CCCC[C@H]2C(=O)O[C@H](/C(C)=C/[C@@H]2CC[C@@H](O)[C@H](OC)C2)[C@H](C)[C@@H](O)CC1=O [13-desmethoxy-FK-520]
I'm curious, which of these has a smaller pKd number: 1 or 2 ? To answer, give the label that identifies your chosen option.
1

The reported measurements were obtained from patent US6569867B2.
